The compounds listed here are annotated with their Ki.
Target: UniProtKB P43119
Sequence (P43119 whole entry): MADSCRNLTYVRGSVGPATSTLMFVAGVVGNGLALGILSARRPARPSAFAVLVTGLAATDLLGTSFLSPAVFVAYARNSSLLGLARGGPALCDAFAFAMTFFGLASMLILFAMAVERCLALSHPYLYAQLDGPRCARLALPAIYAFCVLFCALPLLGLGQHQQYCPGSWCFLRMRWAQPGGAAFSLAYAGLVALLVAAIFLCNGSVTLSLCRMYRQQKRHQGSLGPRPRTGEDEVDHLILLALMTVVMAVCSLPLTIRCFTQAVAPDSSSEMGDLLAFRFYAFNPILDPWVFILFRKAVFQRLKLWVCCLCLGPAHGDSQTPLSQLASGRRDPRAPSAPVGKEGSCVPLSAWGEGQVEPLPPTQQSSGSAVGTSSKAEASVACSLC
Assay: Displacement of [3H]iloprost from cloned human PGI2 receptor
Reported endpoint: Ki (nM)

{"Mol": "O=C([O-])COc1cccc(C[C@@H]2CCCC=C2c2nc(-c3ccccc3)c(-c3ccccc3)o2)c1.[Na+]", "Unit label": "nM", "Recorded value": 60}
{"Mol": "O=C(O)COc1cccc(CN2CCC[C@@H]2c2nc(-c3ccccc3)c(-c3ccccc3)o2)c1", "Unit label": "nM", "Recorded value": 76}

----------
Assay: AUC in rat at 1 mg/kg, po
Assay type: ADME, organism-based
Parameters: dose 1 mg/kg, route oral
Details: plasma
Reported endpoint: AUC (ng·h/mL)

{"Mol": "Cl.O=C(O)COc1cccc(CN2CCC[C@@H]2c2nc(-c3ccccc3)c(-c3ccccc3)o2)c1", "Recorded value": 81.7}
